Every entry's value here was drawn from patent US20120129833A1.

Molecular target: recombinant human ACC1 (acetyl-CoA carboxylase 1) (Homo sapiens, UniProt Q13085)
Construct: NM_198834, amino acids 39—end; FLAG (C)
Experiment: Human ACC1 enzyme assay (HTRF ADP detection);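 also: ADP by-product quantified by competitive HTRF immunoassay with europium cryptate anti-ADP antibody and d2-labelled ADP, read after 1 h binding at 22 °C, enzyme near 2.5 ng/µl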
Conditions: 50 μM ATP, 20 μM acetyl-CoA, 15 min pre-incubation, 20 min at 22° C.; read-out: ACC 1 IC50
measurement.kind: IC50 (nM)
One number for each entry, in nM.

// solved cases for IC50 follow
COC1CCCC2(C1)OC(=O)C(c1c(C)cc(C)c(-c3ccc(Cl)cc3)c1C)=C2O (stereo not shown) :: 4170
Cc1ccc(-c2ccc(Cl)cc2)cc1C1=C(O)CN(C(C)C)C1=O :: 334
Cc1ccc(-c2ccc(Cl)cc2)cc1C1=C(O)C2(CCCOC2)OC1=O (stereo not shown) :: 334

Enquiry: Which value of IC50 has been reported for Cc1ccc(-c2ccc(Cl)cc2)cc1C1=C(O)C2(CCCCC2)CNC1=O in the records?
Return: 1060
